- Test summary: qHTS assay to identify small molecule agonists of the retinoic acid receptor (RAR) signaling pathway (AID 1159553)
- Details: C3RL4 RARE luciferase reporter, agonist, 6 h; series mostly up to 73.3 µM
Inconclusive results are not listed. Activity calls are given as the source filed them. Calls come from the whole dose curve; as a rule, active = well fitted activation curve with a large enough effect in the repeat runs; inconclusive = weak or mixed curves, or effect the other way; inactive = no such curve, though single readings can be large or run the other way.
Outcomes you can answer with include only these: active, inactive

CC[C@H]1OC(=O)[C@H](C)[C@@H](O[C@H]2C[C@@](C)(OC)[C@@H](O)[C@H](C)O2)[C@H](C)[C@@H](O[C@@H]2O[C@H](C)C[C@H](N(C)C)[C@H]2O)[C@](C)(O)C[C@@H](C)/C(=N\OCOCCOC)[C@H](C)[C@@H](O)[C@]1(C)O ... inactive
CCCc1nc2c(C)cc(-c3nc4ccccc4n3C)cc2n1Cc1ccc(-c2ccccc2C(=O)O)cc1 ... inactive
CC(=O)NNC(C)=O ... inactive
CC(C)N=C=NC(C)C ... inactive
O=C(/C=C/c1ccc([N+](=O)[O-])cc1)c1ccccc1 ... active
CC(=O)OC(C)C[N+](C)(C)C (stereo not given) ... inactive
O=P(O)(O)Oc1ccccc1 ... inactive
CCCCCCCCCCCCCC(=O)OCC(O)CO (stereo not given) ... inactive
Cc1cc(CCCOc2c(C)cc(-c3noc(C(F)(F)F)n3)cc2C)on1 ... inactive
c1ccc(CCCc2ccncc2)cc1 ... active

Then this compound:
Incoming: Check the results log: what was the call for CSCC[C@H](NC(=O)[C@H](Cc1c[nH]c2ccccc12)NC(=O)CCNC(=O)OC(C)(C)C)C(=O)N[C@@H](CC(=O)O)C(=O)N[C@@H](Cc1ccccc1)C(N)=O ?
Outgoing: inactive

Data credit: PubChem BioAssay (Tox21)
